Origin of the recorded values: PubChem BioAssay

Measured NADPH fluorescence slope accompanies every entry in the list below.
# Assayed System: Voltage-gated potassium channel subunit beta-2 (Rattus norvegicus)
# Assay Remarks: KvBeta positive modulators, primary screen, biochemical, NADPH fluorescence (AID 623);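 further: fluorescence intensity change per second fitted from 20 to 320 s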
# Experimental Setup: Recombinant KvBeta, NADPH fluorescence decrease slope, 10 min; at 10 µM; active compounds read low
Measured Endpoint: NADPH fluorescence slope

COc1ccc(/C(O)=C2/C(=O)C(=O)N(c3ncccn3)C2c2ccc(OC)c(OC)c2)cc1 (stereo unspecified) :: -4.6e-05
CCn1c(SC(C)C(=O)O)nc2sc3c(c2c1=O)CCC3 (stereo unspecified) :: -3.8e-05
Cc1ccc(SCc2c(C#N)c3ccccc3n2C)cc1 :: -0.000146
COC(=O)/C=c1/s/c(=C(/C#N)C(=O)N2CCOCC2)n(-c2ccccc2)c1=O :: -5e-05
OCCNC1=NCCN1 :: -7.4e-05
O=C(O)C1CSC(CCc2ccccc2)N1 (stereo unspecified) :: -0.000276
CCOc1ccc(C2=Nn3c(nnc3-c3cccnc3)SC2)cc1 :: -0.000128
Cc1nc(Sc2cccn2C)c(C(F)(F)F)c(=O)[nH]1 :: -2.3e-05
O=C(C1=C(O)C(=O)N(CCN2CCOCC2)C1c1cccnc1)c1cc2ccccc2o1 (stereo unspecified) :: -6.5e-05
N=c1c(C(=O)NCc2ccccc2)cc2c(=O)n3ccccc3nc2n1Cc1ccco1 :: -4.7e-05
CC(C)(C)NCC(O)COc1cccc2c1C[C@H](O)[C@H](O)C2 (stereo partly specified) :: -2.9e-05
COc1ccc(NC2CC(=O)N(C)C2=O)cc1 (stereo unspecified) :: 1.4e-05
CN1CCN(C2=Nc3ccccc3Oc3ccc(Cl)cc32)CC1 :: -4.1e-05
CSc1nc2sc3c(c2c2nnnn12)CC(C)(C)OC3 :: -6.6e-05
CN(C)c1ccc(O)c2c1CC1CC3[C@@H](N(C)C)C(=O)C(C(N)=O)=C(O)[C@]3(O)C(=O)C1=C2O (stereo partly specified) :: -5e-06
CNc1nc(C)c(C#N)cc1C(C)=O :: -9.4e-05
